For each entry below, report its microsomal CLint at 50 min, 3 µM value.
Assay: in vitro
Details: mouse, liver microsomes
Answers are plain numbers, in µL/min/mg.

Take a look at these entries with their results.
chemSmiles: C=CC(=O)N1CCC[C@@H](n2nc(-c3cccc(C(F)(F)F)c3)c3c(N)ncnc32)C1
microsomal CLint at 50 min, 3 µM / µL/min/mg: 2770
--
chemSmiles: C=CC(=O)N1CCC[C@@H](n2nc(-c3cn(C)c4ccccc34)c3c(N)ncnc32)C1
microsomal CLint at 50 min, 3 µM / µL/min/mg: 1980
--
chemSmiles: C=CC(=O)N1CCC[C@@H](n2nc(-c3ccccc3)c3c(N)ncnc32)C1
microsomal CLint at 50 min, 3 µM / µL/min/mg: 924
--
chemSmiles: C=CC(=O)N1CCC[C@@H](n2nc(-c3ccc4ccccc4c3)c3c(N)ncnc32)C1
microsomal CLint at 50 min, 3 µM / µL/min/mg: 2310
--
chemSmiles: C=CC(=O)Nc1cccc(Nc2nc(Nc3ccc(N4CCN(C(C)=O)CC4)cc3OC)ncc2C(F)(F)F)c1
microsomal CLint at 50 min, 3 µM / µL/min/mg: 81

For every record below, what is its microsomal CLint at 50 min, 3 µM?
1. C=CC(=O)N1CCC[C@@H](n2nc(-c3cnc4[nH]ccc4c3)c3c(N)ncnc32)C1
2. C=CC(=O)Nc1cc(Nc2nccc(-c3cn(C)c4ccccc34)n2)c(OC)cc1N(C)CCN(C)C
3. C=CC(=O)N1CCC[C@@H](n2nc(-c3cccc4ccccc34)c3c(N)ncnc32)C1

output:
[495, 51, 2770]
